Assign MICantibiotic to each entry below.
test system: K. pneumoniae; test: Checkerboard assay (antibiotic potentiation); type: cell-based, Klebsiella pneumoniae; conditions: K. pneumoniae 113250 (colistin-resistant); antibiotic alone
One number for each entry, in µg/mL.

Example results:
| Sample smiles | System name | Units text | MICantibiotic |
| --- | --- | --- | --- |
| C[C@@H]1CN2c3c(cc4c(N5C(=O)OC[C@@H]5C)noc4c3F)CC3(C(=O)NC(=O)NC3=O)[C@H]2[C@H](C)O1 | K. pneumoniae | µg/mL | 128 |
| CC(C)(O/N=C(\C(=O)N[C@@H]1C(=O)N2C(C(=O)[O-])=C(C[n+]3ccccc3)CS[C@H]12)c1csc(N)n1)C(=O)O | K. pneumoniae | µg/mL | 0.5 |
| C[C@H]1COc2c(N3CCN(C)CC3)c(F)cc3c(=O)c(C(=O)O)cn1c23 | K. pneumoniae | µg/mL | 0.063 |

Answer with MICantibiotic of CO[C@H]1/C=C/O[C@@]2(C)Oc3c(C)c(O)c4c(O)c(c(/C=N/N5CCN(C)CC5)c(O)c4c3C2=O)NC(=O)/C(C)=C\C=C\[C@H](C)[C@H](O)[C@@H](C)[C@@H](O)[C@@H](C)[C@H](OC(C)=O)[C@@H]1C measured for K. pneumoniae. 32
